Every entry's value here was drawn from patent US11365196B2.

System: NCI-H1581 cells
Experiment: Cell proliferation assay on NCI-H1581 (Table 7)
Format: cell-based, human
Conditions: Homo sapiens, NCI-H1581; CellTiter 96 AQueous (144 hrs) or CellTiter Glo (96 hrs); class symbols; read-out: IC50(nM) value of compounds on NCI-H1581 cells
readout-kind: IC50

Reference set (8 entries):
[
  {
    "smiles-notation": "COc1cc(OC)c(Cl)c(-c2cc3cnc(Nc4ccc(N5CCN(C6CCCC6)CC5)cc4)nc3n3cnnc23)c1",
    "IC50": "1 to 10 nM"
  },
  {
    "smiles-notation": "CCC(=O)Nc1ccc(Cc2nnc3c(-c4cc(OC)cc(OC)c4Cl)cc4cnc(NCCN5CCOCC5)nc4n23)cc1",
    "IC50": "> 100 nM"
  },
  {
    "smiles-notation": "COc1cc(OC)c(Cl)c(-c2cc3cnc(Nc4ccc(N5CCN(C6CCN(C)CC6)CC5)cc4)nc3n3cnnc23)c1",
    "IC50": "1 to 10 nM"
  },
  {
    "smiles-notation": "C=CC(=O)Nc1ccc(Cc2nc3c(-c4cc(OC)cc(OC)c4Cl)cc4cnc(NCCN5CCOCC5)nc4n3n2)cc1",
    "IC50": "10 to 100 nM"
  },
  {
    "smiles-notation": "COc1cc(OC)c(Cl)c(-c2cc3cnc(Nc4cccc(N5CCN6CCC[C@@H]6C5)c4)nc3n3cnnc23)c1",
    "IC50": "1 to 10 nM"
  },
  {
    "smiles-notation": "CNc1ncc2cc(-c3c(Cl)c(OC)cc(OC)c3Cl)c3nc(CCCN4CCN(C(=O)C(C#N)=CC(C)C)CC4)nn3c2n1",
    "IC50": "10 to 100 nM"
  },
  {
    "smiles-notation": "COc1cc(OC)c(Cl)c(-c2cc3cnc(Nc4ccc(N5CC6CCC(C5)N6C)cc4)nc3n3cnnc23)c1",
    "IC50": "< 1 nM"
  },
  {
    "smiles-notation": "COc1cc(OC)c(Cl)c(-c2cc3cnc(Nc4ccc(N5CCN(C6COC6)CC5)cc4)nc3n3cnnc23)c1",
    "IC50": "1 to 10 nM"
  }
]

Query COc1cc(OC)c(Cl)c(-c2cc3cnc(Nc4ccc(C(=O)N5C[C@@H](C)N[C@@H](C)C5)cc4)nc3n3cnnc23)c1Cl yields IC50 of < 1 nM

Query C=CC(=O)N1CCN(CCc2nc3c(-c4cc(OC)cc(OC)c4Cl)cc4cnc(NC)nc4n3n2)CC1 yields IC50 of 10 to 100 nM

Query COc1cc(OC)c(Cl)c(-c2cc3cnc(Nc4ccc(C5CCN(C)CC5)cc4)nc3n3cnnc23)c1 yields IC50 of 1 to 10 nM

Query C=CC(=O)Nc1ccc(Cc2nnc3c(-c4cc(OC)cc(OC)c4Cl)cc4cnc(NCCN5CCOCC5)nc4n23)cc1 yields IC50 of 1 to 10 nM

Query COc1cc(OC)c(Cl)c(-c2cc3cnc(Nc4ccc(N5C[C@@H](C)N[C@@H](C)C5)c(OC)c4)nc3n3cnnc23)c1 yields IC50 of 1 to 10 nM

Query C=CC(=O)N1CCN(CCc2nc3c(-c4c(Cl)c(OC)cc(OC)c4Cl)cc4cnc(NC)nc4n3n2)CC1 yields IC50 of 1 to 10 nM
